Recorded values, source patent US20020137929A1.

Readings of ABUTH preemergence herbicidal rating for the listed compounds
Test system: ABUTH (Velvetleaf)
Experiment: Preemergence herbicidal evaluation
Format: in vivo, Abutilon theophrasti
Conditions: rate 0.0313 kg/ha; rated 4-5 weeks after treatment
ENDPOINT_LABEL: ABUTH preemergence herbicidal rating

COMPOUND: COC(=O)CN1C(=O)CSC1=Nc1cc(-n2c(=O)cc(C(F)(F)F)n(C)c2=O)c(F)cc1Cl
EXPERIMENTAL_RESULT: 4.0
--
COMPOUND: CCC1SC(=Nc2cc(-n3c(=O)cc(C(F)(F)F)n(C)c3=O)c(F)cc2Cl)N(C)C1=O (stereo not shown)
EXPERIMENTAL_RESULT: 8.0
--
COMPOUND: CN1C(=O)CSC1=Nc1cc(N2C(=O)C3=C(CCCC3)C2=O)c(F)cc1Cl
EXPERIMENTAL_RESULT: 5.0
--
COMPOUND: CC1SC(=Nc2cc(-n3c(=O)cc(C(F)(F)F)n(C)c3=O)c(F)cc2Cl)N(C)C1=O (stereo not shown)
EXPERIMENTAL_RESULT: 9.0
